Test: Inhibition of NMDA receptor

chemicalStructure | IC50
NCCCCCNC1(c2ccccc2)CCCCC1 | 2.1 µM

* * *

Molecular target: Glutamate NMDA receptor; GRIN1/GRIN2B (Homo sapiens, UniProt Q05586+Q13224)
Sequence (Q13224 whole entry, other chains not shown): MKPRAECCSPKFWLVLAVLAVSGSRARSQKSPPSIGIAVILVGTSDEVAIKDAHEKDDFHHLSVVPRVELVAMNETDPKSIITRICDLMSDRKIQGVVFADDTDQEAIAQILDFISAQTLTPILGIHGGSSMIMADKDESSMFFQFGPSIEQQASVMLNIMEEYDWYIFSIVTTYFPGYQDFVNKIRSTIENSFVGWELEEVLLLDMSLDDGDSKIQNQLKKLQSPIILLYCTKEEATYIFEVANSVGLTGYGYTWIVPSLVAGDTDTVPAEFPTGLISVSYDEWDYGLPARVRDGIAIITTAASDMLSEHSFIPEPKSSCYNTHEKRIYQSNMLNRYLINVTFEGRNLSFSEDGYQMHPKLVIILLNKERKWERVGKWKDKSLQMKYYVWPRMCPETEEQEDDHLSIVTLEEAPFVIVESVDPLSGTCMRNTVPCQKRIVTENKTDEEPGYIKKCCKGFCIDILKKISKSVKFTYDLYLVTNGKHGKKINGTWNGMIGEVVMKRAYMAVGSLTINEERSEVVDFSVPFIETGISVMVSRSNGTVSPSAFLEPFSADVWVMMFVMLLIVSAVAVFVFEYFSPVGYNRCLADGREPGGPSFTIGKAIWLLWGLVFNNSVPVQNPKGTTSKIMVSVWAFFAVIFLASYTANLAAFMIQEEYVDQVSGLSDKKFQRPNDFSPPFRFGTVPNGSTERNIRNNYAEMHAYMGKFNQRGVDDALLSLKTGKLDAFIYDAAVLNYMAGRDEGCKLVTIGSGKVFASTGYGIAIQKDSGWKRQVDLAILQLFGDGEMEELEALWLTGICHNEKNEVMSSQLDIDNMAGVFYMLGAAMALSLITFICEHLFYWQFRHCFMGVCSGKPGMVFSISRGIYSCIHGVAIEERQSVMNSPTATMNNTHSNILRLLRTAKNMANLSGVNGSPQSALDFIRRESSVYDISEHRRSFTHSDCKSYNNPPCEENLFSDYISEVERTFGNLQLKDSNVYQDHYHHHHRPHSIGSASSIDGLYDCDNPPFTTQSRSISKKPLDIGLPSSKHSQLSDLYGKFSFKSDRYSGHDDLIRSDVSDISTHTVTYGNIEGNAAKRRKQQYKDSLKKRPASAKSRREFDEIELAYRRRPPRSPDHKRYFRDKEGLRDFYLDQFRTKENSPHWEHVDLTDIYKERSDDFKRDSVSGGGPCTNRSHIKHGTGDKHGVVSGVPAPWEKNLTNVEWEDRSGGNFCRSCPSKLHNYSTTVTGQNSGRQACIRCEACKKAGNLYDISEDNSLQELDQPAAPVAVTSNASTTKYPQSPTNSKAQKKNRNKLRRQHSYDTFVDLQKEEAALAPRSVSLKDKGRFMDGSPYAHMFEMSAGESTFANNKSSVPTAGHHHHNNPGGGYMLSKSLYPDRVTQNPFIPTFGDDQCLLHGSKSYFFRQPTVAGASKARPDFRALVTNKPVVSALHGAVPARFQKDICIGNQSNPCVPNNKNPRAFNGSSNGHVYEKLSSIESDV
Test: Antagonist activity at NR1/2B receptor expressed in xenopus laevis at pH 6.9 by two electrode voltage clamp method
pIC50: −log10 of the molar value.
measuredParameter: pIC50

chemicalStructure | numericResult
CN1CC[C@@]23CCCC[C@@H]2[C@@H]1Cc1ccc(O)cc13 | 6.61
